meta.source: patent US6608082B1

- SYSTEM UNDER TEST: MCR-1 (Homo sapiens)
- Construct: expressed in transfected cells; host or cells: HEK 293
- Sequence (Q01726 whole entry): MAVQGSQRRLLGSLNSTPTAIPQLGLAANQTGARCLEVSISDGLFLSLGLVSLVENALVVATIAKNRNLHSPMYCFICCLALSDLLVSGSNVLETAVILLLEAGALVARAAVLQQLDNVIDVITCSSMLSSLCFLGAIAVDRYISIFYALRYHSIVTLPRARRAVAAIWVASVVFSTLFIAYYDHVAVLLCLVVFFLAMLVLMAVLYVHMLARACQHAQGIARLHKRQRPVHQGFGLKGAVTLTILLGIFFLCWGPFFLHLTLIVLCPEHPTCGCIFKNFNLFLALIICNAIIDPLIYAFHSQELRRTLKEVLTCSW
- EXPERIMENTAL PROTOCOL: Melanocortin receptor binding assay, competition with 125I-HP 467, HEK 293 cells expressing hMCR-1
- DETAILS: displacement of 125I-HP 467 at 10 μM isoquinoline compound; second of duplicate
OBSERVED PROPERTY: % Disp. MC-1 10 μM (%)
Give bare numbers, in %.

[[record]]
compound = "NCCN1Cc2ccccc2C(CNC2CCCCC2)C1c1ccc(F)c(F)c1 (stereo not drawn)"
recorded_value = 43.8

[[record]]
compound = "CNC(CN)CN1Cc2ccccc2C(CNC2CCCCC2)C1c1ccc2c(c1)OCCO2 (stereo not drawn)"
recorded_value = 56.2


Could I get % Disp. MC-1 10 μM for every one of these entries?
1. CNC(CN)CN1Cc2ccccc2C(CNC2CCCCC2)C1c1ccc(OC)cc1 (stereo not drawn)
2. CNC(CN)CN1Cc2ccccc2C(CNC2CCCCC2)C1c1cccc(Oc2ccc(OC)cc2)c1 (stereo not drawn)
3. NCCN1Cc2ccccc2C(CNC2CCCCC2)C1c1cccc([N+](=O)[O-])c1 (stereo not drawn)
4. CNC(CN)CN1Cc2ccccc2C(CNC2CCCCC2)C1c1cccnc1 (stereo not drawn)
5. CNC(CN)CN1Cc2ccccc2C(CNC2CCCCC2)C1c1c(F)cccc1Cl (stereo not drawn)
6. NCCN1Cc2ccccc2C(CNC2CCCCC2)C1c1ccc(F)c(F)c1F (stereo not drawn)

Marked response:
1: 54.7; 2: 63; 3: 42.4; 4: 16.2; 5: 33.3; 6: 50

Recorded result, CNC(CN)CN1Cc2ccccc2C(CNC2CCCCC2)C1c1ccc(CN)cc1 (stereo not drawn) , % Disp. MC-1 10 μM: 54.8

---

- SYSTEM UNDER TEST: MCR-4 (Homo sapiens, UniProt P32245)
- Construct: expressed in transfected cells; host or cells: HEK 293
- Sequence (P32245 whole entry): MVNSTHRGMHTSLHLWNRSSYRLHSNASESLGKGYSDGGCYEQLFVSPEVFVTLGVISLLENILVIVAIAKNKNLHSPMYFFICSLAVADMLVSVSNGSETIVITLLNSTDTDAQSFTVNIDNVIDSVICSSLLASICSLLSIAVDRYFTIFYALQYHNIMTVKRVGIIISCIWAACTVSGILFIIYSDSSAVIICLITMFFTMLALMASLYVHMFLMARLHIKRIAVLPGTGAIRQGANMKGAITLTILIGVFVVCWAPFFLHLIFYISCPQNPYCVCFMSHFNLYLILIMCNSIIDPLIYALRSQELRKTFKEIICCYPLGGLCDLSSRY
- EXPERIMENTAL PROTOCOL: Melanocortin receptor binding assay, competition with 125I-HP 467, HEK 293 cells expressing hMCR-4
- DETAILS: TRG 2408 and TRG 2409 libraries; inhibition of 125I-HP 467 binding; read-out: MC-4 IC50
OBSERVED PROPERTY: pIC50
Give bare numbers, as −log10 of the molar value.

Below are worked cases with known answers.
[[record]]
compound = "NCC(N)CCCN1Cc2ccccc2C(CNC2CCCCC2)C1c1ccc(Cl)cc1Cl (centres unmarked) [TRG 2408-71]"
recorded_value = 5.52

[[record]]
compound = "CCNc1ccc(C2C(CNC3CCCCC3)c3ccccc3CN2CCCC(CN)NC)cc1 (centres unmarked) [TRG 2408-60]"
recorded_value = 4.68

[[record]]
compound = "NCC(N)CCN1Cc2ccccc2C(CNC2CCCCC2)C1c1ccc(-c2ccccc2)cc1 (mixture of isomers) [TRG 2408-111]"
recorded_value = 4.92

[[record]]
compound = "NC[C@H](N)CCCCN1Cc2ccccc2C(CNC2CCCCC2)C1c1ccc(-c2ccccc2)cc1 (some centres unmarked) [TRG 2408-51]"
recorded_value = 4.53

[[record]]
compound = "NCC(CCCCN1Cc2ccccc2C(CNC2CCCCC2)C1c1ccc(-c2ccccc2)cc1)NCCc1ccccc1 (centres unmarked) [TRG 2408-52]"
recorded_value = 4.91

[[record]]
compound = "NCCNC(CN)CCCN1Cc2ccccc2C(CNC2CCCCC2)C1c1ccc(-c2ccccc2)cc1 (centres unmarked) [TRG 2408-83]"
recorded_value = 4.96

[[record]]
compound = "CNCCN[C@@H](CN)CCCCN1Cc2ccccc2C(CNC2CCCCC2)C1c1ccc(-c2ccccc2)cc1 (some centres unmarked) [TRG 2408-54]"
recorded_value = 4.57

[[record]]
compound = "NCCNC(CN)CCCCN1Cc2ccccc2C(CNC2CCCCC2)C1c1ccc(-c2ccccc2)cc1 (centres unmarked) [TRG 2408-53]"
recorded_value = 4.83


Could I get pIC50 for every one of these entries?
1. CCNc1ccc(C2C(CNC3CCCCC3)c3ccccc3CN2CCCC(N)CN)cc1 (centres unmarked) [TRG 2408-61]
2. CNCCNC(CN)CCN1Cc2ccccc2C(CNC2CCCCC2)C1c1ccc(-c2ccccc2)cc1 (mixture of isomers) [TRG 2408-114]
3. NCC(CCCN1Cc2ccccc2C(CNC2CCCCC2)C1c1ccc(-c2ccccc2)cc1)NCCc1ccccc1 (centres unmarked) [TRG 2408-82]

Marked response:
4.45
4.98
4.78

---

Hi there, I'd appreciate the recorded pIC50 for every entry that follows.
- SYSTEM UNDER TEST: MCR-4 (Homo sapiens, UniProt P32245)
- Construct: expressed in transfected cells; host or cells: HEK 293
- EXPERIMENTAL PROTOCOL: Melanocortin receptor binding assay, competition with 125I-HP 467, HEK 293 cells expressing hMCR-4
- DETAILS: competition with 125I-HP 467, HEK 293 cells expressing MCR-4; read-out: MC-4 IC50
- Method: All cell culture media and reagents were obtained from GibcoBRL (Gaithersburg Md.), except for COSMIC CALF SERUM (HyClone; Logan Utah). Cells were suspended in PBS, 10% COSMIC CALF SERUM and 1 mM CaCl2. […] To assay isoquinoline compounds, binding assays were performed in duplicate in a 96 well format. […] Cells were harvested on GF/B filter plates as described above and counted.
One number for each entry, as −log10 of the molar value.

Below are worked cases with known answers.
[[record]]
molecule = "CCCCNc1ccc(C2C(CN)c3ccccc3CN2CCCCC(CN)NCCc2ccc(Br)cc2)cc1 (stereo not drawn) [TRG 2411-105]"
observed_property = "pIC50"
recorded_value = 6.04

[[record]]
molecule = "CCNc1ccc(C2C(CNCCc3ccccc3)c3ccccc3CN2CCCCC(CN)NCCc2ccc3ccccc3c2)cc1 (stereo not drawn) [TRG 2411-46]"
observed_property = "pIC50"
recorded_value = 5.88

[[record]]
molecule = "CCCCNC(CN)CCCCN1Cc2ccccc2C(CNCCc2ccccc2)C1c1ccc(NCC)cc1 (stereo not drawn) [TRG 2411-38]"
observed_property = "pIC50"
recorded_value = 5.88

[[record]]
molecule = "CNC(CN)CCCCN1Cc2ccccc2C(CNC2CCCCC2)C1c1ccc(NCc2ccccc2)cc1 (stereo not drawn) [TRG 2409-13]"
observed_property = "pIC50"
recorded_value = 4.76

[[record]]
molecule = "CNCCNC(CN)CCCCN1Cc2ccccc2C(CN)C1c1ccc(-c2ccccc2)cc1 (stereo not drawn) [TRG 2411-26]"
observed_property = "pIC50"
recorded_value = 5.21

[[record]]
molecule = "CCCCNc1ccc(C2C(CNC3CCCCC3)c3ccccc3CN2CCCCC(CN)NCCc2ccccc2)cc1 (stereo not drawn) [TRG 2411-90]"
observed_property = "pIC50"
recorded_value = 5.93


Could I get pIC50 for every one of these entries?
1. CNC(CN)CCCCN1Cc2ccccc2C(CNC2CCCCC2)C1c1ccc(NCCc2ccc(Cl)c(Cl)c2)cc1 (stereo not drawn) [TRG 2409-23]
2. CCNc1ccc(C2C(CNC3CCCCC3)c3ccccc3CN2CCCCC(CN)NCc2ccccc2)cc1 (stereo not drawn) [TRG 2411-54]
3. CCCCNc1ccc(C2C(CNC3CCCCC3)c3ccccc3CN2CCCCC(CN)NCc2ccc(Cl)cc2)cc1 (stereo not drawn) [TRG 2411-94]
4. CCNc1ccc(C2C(CNC3CCCCC3)c3ccccc3CN2CCCCC(CN)NCc2ccc(Cl)cc2)cc1 (stereo not drawn) [TRG 2411-55]

Marked response:
4.71
5.75
5.77
5.69

Could I get pIC50 for every one of these entries?
1. CCCCNC(CN)CCCCN1Cc2ccccc2C(CNC2CCCCC2)C1c1ccc(-c2ccccc2)cc1 (stereo not drawn) [TRG 2411-20]
2. CCNC(CN)CCCN1Cc2ccccc2C(CNCCc2ccccc2)C1c1ccc(-c2ccccc2)cc1 (stereo not drawn) [TRG 2411-115]
3. CCNc1ccc(C2C(CNC3CCCCC3)c3ccccc3CN2CCCCC(CN)NCCc2ccc(Br)cc2)cc1 (stereo not drawn) [TRG 2411-52]

Marked response:
1. 6.11
2. 5.84
3. 6.07

Could I get pIC50 for every one of these entries?
1. CCNc1ccc(C2C(CNCCc3ccccc3)c3ccccc3CN2CCCCC(CN)NCc2ccc(OC)cc2)cc1 (stereo not drawn) [TRG 2411-45]
2. CCNc1ccc(C2C(CNCCc3ccccc3)c3ccccc3CN2CCCCC(CN)NCCc2ccc(Br)cc2)cc1 (mixture of isomers) [TRG 2411-41]

Marked response:
[6.08, 5.79]

---

- SYSTEM UNDER TEST: MCR-4 (Homo sapiens)
- Construct: expressed in transfected cells; host or cells: HEK 293
- EXPERIMENTAL PROTOCOL: Melanocortin receptor binding assay, competition with 125I-HP 467, HEK 293 cells expressing hMCR-4
- DETAILS: inhibition of binding of 125I-HP 467, HEK 293 cells expressing MCR-4; TRG 2414 library; read-out: MC-4 IC50
OBSERVED PROPERTY: pIC50
One number for each entry, as −log10 of the molar value.

[[record]]
compound = "CCCOc1ccc(C2C(CNCc3ccccc3OCC)c3ccccc3CN2CCCCC(CN)NCC(C)c2ccc(CC(C)C)cc2)cc1 (stereo not drawn) [TRG 2414-168]"
recorded_value = 4.35


Could I get pIC50 for every one of these entries?
1. COc1cccc(CNCC2c3ccccc3CN(CCCCC(CN)NCC(C)c3ccc(CC(C)C)cc3)C2c2cc(C(F)(F)F)cc(C(F)(F)F)c2)c1 (stereo not drawn) [TRG 2414-60]
2. CCCOc1ccc(C2C(CNCc3ccc(OC)cc3)c3ccccc3CN2CCCCC(CN)NCC(C)c2ccc(CC(C)C)cc2)cc1 (stereo not drawn) [TRG 2414-184]

Marked response:
1. 4.28
2. 4.55
